Biological target: T1, rat NPR1-ANP complex (rat)
T1 construct: Rat receptor antigen measured in the presence of ANP; also called rNPR1 + ANP; rNPR1-ANP-complex
T1 sequence (P18910 29-469, one chain of several): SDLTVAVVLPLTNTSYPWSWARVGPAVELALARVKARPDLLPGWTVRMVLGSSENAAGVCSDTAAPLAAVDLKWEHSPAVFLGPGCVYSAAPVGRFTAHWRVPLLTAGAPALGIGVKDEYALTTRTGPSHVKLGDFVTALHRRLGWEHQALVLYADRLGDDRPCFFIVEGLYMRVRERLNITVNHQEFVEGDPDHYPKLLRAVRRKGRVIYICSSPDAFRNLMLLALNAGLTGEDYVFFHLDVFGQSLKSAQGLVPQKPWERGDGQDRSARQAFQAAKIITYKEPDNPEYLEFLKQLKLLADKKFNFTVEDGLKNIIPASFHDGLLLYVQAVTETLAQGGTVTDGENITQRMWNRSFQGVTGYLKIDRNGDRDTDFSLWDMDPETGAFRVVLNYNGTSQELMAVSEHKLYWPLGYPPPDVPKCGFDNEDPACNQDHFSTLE
Experiment: ELISA, 1 uM IgG, +100 nM ANP
value-kind: ELISA IgG binding at 1 uM IgG (unit not given)

Let me know recorded ELISA IgG binding at 1 uM IgG (unit not given) for YY07 IgG (YY07_LALA) (antibody, V domains shown) VH: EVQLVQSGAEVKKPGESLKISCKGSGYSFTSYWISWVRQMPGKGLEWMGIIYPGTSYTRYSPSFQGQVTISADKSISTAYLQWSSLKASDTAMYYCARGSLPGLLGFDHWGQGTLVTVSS VL: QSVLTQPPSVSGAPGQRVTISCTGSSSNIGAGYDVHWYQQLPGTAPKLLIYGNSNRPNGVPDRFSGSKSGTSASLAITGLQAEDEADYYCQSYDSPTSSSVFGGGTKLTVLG , thanks. 3
